Attribution: patent US20090234023A1

Entries with their measured MIC, system Micrococcus luteus:

**Q:** GET /values?readout=MIC&item= CC(=O)c1cc(CC=C(C)C)ccc1OCC=C(C)C [Compound L3]
**A:** 500 to 1000 µg/mL

**Q:** GET /values?readout=MIC&item= O=C(N[C@H](CO)[C@H](O)c1ccc([N+](=O)[O-])cc1)C(Cl)Cl [Chloramphenicol, reference compound]
**A:** 50 µg/mL

**Q:** GET /values?readout=MIC&item= CC(=O)c1cc(CC=C(C)C)ccc1O [Compound L2]
**A:** 500 to 1000 µg/mL

**Q:** GET /values?readout=MIC&item= CC(=O)c1ccc(OCC=C(C)C)cc1 [LP1]
**A:** > 1500 µg/mL

**Q:** GET /values?readout=MIC&item= CC(=O)c1ccccc1OCC=C(C)C [Compound L1]
**A:** 250 to 500 µg/mL

**Q:** GET /values?readout=MIC&item= CC(=O)c1ccc(OCC=C(C)C)cc1OCC=C(C)C [2,4O]
**A:** 500 to 1000 µg/mL
